Values were extracted from ChEMBL document CHEMBL1649119.

- Assay Procedure: Cmax in healthy human subjects at 8 mg/kg, iv administered as 30 mins infusion every 24 hrs measured on day 1
- Assay type: ADME, organism-based
- Set-up: dose 8 mg/kg, route intravenous
- Measurement Setup: in vivo
Experimental Endpoint: Cmax (µg/mL)
Answers are plain numbers, in µg/mL.

// Cmax lookup, compound = CCCCCCCCCC(=O)N[C@@H](Cc1c[nH]c2ccccc12)C(=O)N[C@H](CC(N)=O)C(=O)N[C@@H](CC(=O)O)C(=O)N[C@@H]1C(=O)NCC(=O)N[C@@H](CCCN)C(=O)N[C@@H](CC(=O)O)C(=O)N[C@H](C)C(=O)N[C@@H](CC(=O)O)C(=O)NCC(=O)N[C@H](CO)C(=O)N[C@@H]([C@H](C)CC(=O)O)C(=O)N[C@@H](CC(=O)c2ccccc2N)C(=O)O[C@@H]1C , result: 106

---

- Assay Procedure: AUC (0 to infinity) in healthy human subjects at 12 mg/kg, iv administered as 30 mins infusion every 24 hrs measured on day 1
- Assay type: ADME, organism-based
- Parameters: time infinity, dose 12 mg/kg, route intravenous
- Measurement Setup: plasma
Experimental Endpoint: AUC(0-inf)

// AUC(0-inf) lookup, molecule = CCCCCCCCCC(=O)N[C@@H](Cc1c[nH]c2ccccc12)C(=O)N[C@H](CC(N)=O)C(=O)N[C@@H](CC(=O)O)C(=O)N[C@@H]1C(=O)NCC(=O)N[C@@H](CCCN)C(=O)N[C@@H](CC(=O)O)C(=O)N[C@H](C)C(=O)N[C@@H](CC(=O)O)C(=O)NCC(=O)N[C@H](CO)C(=O)N[C@@H]([C@H](C)CC(=O)O)C(=O)N[C@@H](CC(=O)c2ccccc2N)C(=O)O[C@@H]1C , result: 1270 µg·h/mL

---

- Assay Procedure: Cmax in healthy human subjects at 10 mg/kg, iv administered as 30 mins infusion every 24 hrs measured on day 1
- Format: ADME, organism-based
- Design: dose 10 mg/kg, route intravenous
- Measurement Setup: in vivo
Experimental Endpoint: Cmax (µg/mL)
Numbers only, in µg/mL.

// Cmax lookup, compound = CCCCCCCCCC(=O)N[C@@H](Cc1c[nH]c2ccccc12)C(=O)N[C@H](CC(N)=O)C(=O)N[C@@H](CC(=O)O)C(=O)N[C@@H]1C(=O)NCC(=O)N[C@@H](CCCN)C(=O)N[C@@H](CC(=O)O)C(=O)N[C@H](C)C(=O)N[C@@H](CC(=O)O)C(=O)NCC(=O)N[C@H](CO)C(=O)N[C@@H]([C@H](C)CC(=O)O)C(=O)N[C@@H](CC(=O)c2ccccc2N)C(=O)O[C@@H]1C , result: 130

---

- Assay Procedure: Half life in healthy human at 8 mg/kg, iv administered as 30 mins infusion every 24 hrs measured on day 14
- Type: ADME, organism-based
- Parameters: dose 8 mg/kg, route intravenous
- Measurement Setup: in vivo
Experimental Endpoint: half-life (h)
Answers are plain numbers, in h.

// half-life lookup, compound = CCCCCCCCCC(=O)N[C@@H](Cc1c[nH]c2ccccc12)C(=O)N[C@H](CC(N)=O)C(=O)N[C@@H](CC(=O)O)C(=O)N[C@@H]1C(=O)NCC(=O)N[C@@H](CCCN)C(=O)N[C@@H](CC(=O)O)C(=O)N[C@H](C)C(=O)N[C@@H](CC(=O)O)C(=O)NCC(=O)N[C@H](CO)C(=O)N[C@@H]([C@H](C)CC(=O)O)C(=O)N[C@@H](CC(=O)c2ccccc2N)C(=O)O[C@@H]1C , result: 8.9
